Assay: in vivo
Design: species or system SD rats
Conditions: male, SD, rat, in vivo, iv, 1 mg/kg, IV 1 mg/kg, 2 hr, mean; read-out: liver concentration of 105
Experimental: 105 was dissolved in 4% NaHCO3 in saline for IV administration. The detailed procedure of dosing solution preparation was presented in Appendix I. Thirteen (13) animals were placed on the study. The animals in IV arm were free access to food and water. One extra animal was used for blank liver and plasma generation (5 mL per animal). […] Software: The PK parameters were determined by non-compartmental model of non-compartmental analysis tool, Pharsight Phoenix WinNonlin® 6.2 software. […]
METRIC_NAME: concentration at 2 h (ng/g)
Field format: number, assumed ng/g, no unit text.

IN: Data request, read-out concentration at 2 h, for CCN1CCN(C(=O)C2C3CCC(O3)C2C(=O)O)CC1 (stereo not shown) [Compound 105]
OUT: 115
